Molecular target: Human immunodeficiency virus type 1 reverse transcriptase (Human immunodeficiency virus 1)
Assay: Tested for inhibitory concentration on HIV-1 Reverse transcriptase in the presence of poly(c)-oligo-(dG)
The entries below are paired with their reported pIC50.
To interpret pIC50, take it as minus log10 of a concentration measured in moles per litre.

Solved entries (count: 4):
1. Cc1c(Sc2ccccc2)n(COCc2ccccc2)c(=O)[nH]c1=O ... 6.52
2. CCc1c(C)nc(O)c(N)c1C(=O)c1cc(C)cc(C)c1 ... 7.00
3. CCc1c(C)nc(O)c(N)c1Cc1cc(C)cc(C)c1 ... 7.00
4. CCc1c(C)[nH]c(=O)c(NC=O)c1Cc1cc(C)cc(C)c1 ... 6.70

GET /value?item= `CCc1c(C)[nH]c(=O)c(N(C)C)c1Cc1cc(C)cc(C)c1` &field=pIC50 returns 7.70

====

Test: Inhibitory concentration against HIV-2 D 194
Format: functional
pIC50: −log10 of the molar value.
Overview of reported pIC50 across a group of compounds:

Here are 6 compounds together with their reported answers.
1) CCc1c(C)nc(O)c(N)c1C(=O)c1cc(C)cc(C)c1 ... < 5.00
2) CCc1c(C)[nH]c(=O)c(N(C)C)c1Cc1cc(C)cc(C)c1 ... < 6.00
3) CCc1c(C)nc(O)c(N)c1Cc1cc(C)cc(C)c1 ... < 5.00
4) CCc1c(C)[nH]c(=O)c(NC)c1Cc1cc(C)cc(C)c1 ... < 5.00
5) CCc1c(C)nc(O)c(N)c1C(O)c1cc(C)cc(C)c1 (configuration not stated) ... < 5.00
6) CCc1c(C)[nH]c(=O)c(NC(C)=O)c1Cc1cc(C)cc(C)c1 ... < 5.00

The record that follows has no pIC50 shown yet.
Lab book: pIC50 of `CCc1c(C)[nH]c(=O)c(NC=O)c1Cc1cc(C)cc(C)c1` noted as < 5.00

Every entry's value here was drawn from ChEMBL document CHEMBL1133473.
